Reference source: patent US20210382058A1

# Tested on: NCI-60 cancer cell lines
# test_summary: NCI-60 cancer cell line drug screen (GI50, MGM)
# Type: cell-based, human
# measurement_context: Homo sapiens, 786-0, Renal Cancer, 786-0; read-out: Antiproliferative Activities [GI50 (μM)]
Field: class. Source value: GI50. Ranges: lo = under 0.06 µM, mid = from 0.06 µM up to 0.3 µM, hi = 0.3 µM and over

> print(dat)
                                         mol  classification
 1  COc1cnc2c(c1)C(=O)c1c-2n(CCCNC(C)C)c(=O)c2cc(F)ccc12             mid
 2  COc1cc2c(cc1O)-c1c(c3ccc([N+](=O)[O-])cc3c(=O)n1CCCn1ccnc1)C2=O              hi
 3  COc1cnc2c(c1)C(=O)c1c-2n(CCCNC2=NCCS2)c(=O)c2cc([N+](=O)[O-])ccc12              lo
 4  CN(C)CCCn1c2c(c3ccc(N4CCNCC4)cc3c1=O)C(=O)c1ccccc1-2              hi
 5  CN(C)CCCn1c2c(c3ccc(-c4ccn[nH]4)cc3c1=O)C(=O)c1ccccc1-2             mid
 6  CNCCCn1c2c(c3ccc([N+](=O)[O-])cc3c1=O)C(=O)c1cc(OC)cnc1-2              lo
 7  COc1cc2c(cc1O)-c1c(c3ccc([N+](=O)[O-])cc3c(=O)n1CCCN)C2=O              hi
 8  COc1cc2c3c(n(CCCn4ccnc4)c(=O)c2cc1OC)-c1cc2c(cc1C3=O)OCO2              lo
 9  CNCCCn1c2c(c3ccc(F)cc3c1=O)C(=O)c1cc(OC)cnc1-2             mid
10  COc1cnc2c(c1)C(=O)c1c-2n(CCCN2CCCC2)c(=O)c2cc([N+](=O)[O-])ccc12              lo
11  COc1ccc2c(c1)C(=O)c1c-2n(CCCN2CCOCC2)c(=O)c2ccccc12              hi
